assay: Primary qHTS for delayed death inhibitors of the malarial parasite plastid, 48 hour incubation; details: P. falciparum luciferase growth in erythrocytes; series mostly up to 28.7 µM
In all, about 310,000 compounds went through this assay and about 18,000 (5.8%) were called active. Another 22% or so got no clear call; they are omitted. Calls come from the whole dose curve; as a rule, active = well fitted inhibition curve with a large enough effect; inconclusive = small, poorly fitted or top-dose-only effect, or another doubt; inactive = no such curve, though single readings can be large or run the other way. This excerpt belongs to a sample that is enriched for actives.
Tick one outcome: t (active), f (inactive)

# compound, qualitativeLabel
records = [
    ("C[C@H](NC(=O)c1nc[nH]c1C(=O)N[C@@H](C)C(=O)OC(C)(C)C)C(=O)OC(C)(C)C", "t"),
    ("Cc1cc(NC(=O)COc2ccc(Cl)cc2Cl)n(CCC#N)n1", "f"),
    ("CC(C)(C)N(Cc1ccccc1)C(=O)c1ccncc1", "f"),
    ("O=C(COc1ccc2c3c(c(=O)oc2c1)CCCC3)NCC(O)c1ccccc1 (stereo not drawn)", "f"),
    ("CC(C)(C)c1cc[n+](-c2[nH]c(=O)sc2/C=N/N=C(\\[O-])c2ccccc2)cc1", "f"),
]

Look up the recorded call for Brc1ccccc1C1Nc2cccc3cccc(c23)N1 in this test.
t

Could you please tell me the result logged for CCOc1ccc(NC(=O)C(C)N2C(=O)c3ccccc3C2=O)cc1 (stereo not drawn) in this assay?
f

What call does the record list for N/C(=N/O)c1cccn1Cc1ccccc1[N+](=O)[O-] ?
f

# credit: PubChem BioAssay AID504832
